All figures here come from the MegaScale stability set (Tsuboyama et al. 2023).

Readings of folding stability dG for the listed variants
B1: EEHEE_rd4_0363 (parent)
chain: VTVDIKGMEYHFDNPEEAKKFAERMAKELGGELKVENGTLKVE

- Variants of: B1
- Assay notes: folding stability dG (cDNA display proteolysis); higher = more stable
- Particulars: PBS, room temperature
Answer in kcal/mol, number only, no unit symbol.

Examples with answers:
ETVDIKGMEYHFDNPEEAKKFAERMAKELGGELKVENGTLKVE [V1E] = 0.523
VTVDIKGMEYHFDNPEEATKFAERMAKELGGELKVENGTLKVE [K19T] = 1.71
VTVDIKGMEYHFDNPEEAKKFAERMAEELGGELKVENGTLKVE [K27E] = 1.77
VTVDIKGMEYHFDNPEEAKKFAERMAKELGGELKVENVTLKVE [G38V] = 0.725
VTVDIKGMEYHFDNPEEAKKFAERMAKELGVELKVENGTLKVE [G31V] = 1.85

Form field folding stability dG, entry VTVDIKGMEYHFDNPEEAKKFAERMAKELGGELKWENGTLKVE [V35W] : 3.09

Form field folding stability dG, entry VTVDIKGMEYKFDNPEEAKKFAERMAKELGGELKVENGTLKVE [H11K] : 1.73

Form field folding stability dG, entry VTVDIKGMEYHFDNPEEYKKFAERMAKELGGELKVENGTLKVE [A18Y] : 0.753

Form field folding stability dG, entry VTVDIKGMEYHFDNPEEAKKFAERMAKELGGILKVENGTLKVE [E32I] : 2.89

Form field folding stability dG, entry VTVDIKGMEYHTDNPEEAKKFAERMAKELGGELKVENGTLKVE [F12T] : -0.58

Form field folding stability dG, entry VTVDIKRMEYHFDNPEEAKKFAERMAKELGGELKVENGTLKVE [G7R] : 0.237

Form field folding stability dG, entry VTVDIKGMEYHFDNPEEAKKFAERMAKELGGELKVENGTIKVE [L40I] : 2.6

Form field folding stability dG, entry VTVDIKGMEYHFDNPEEAKKFAERMAKESGGELKVENGTLKVE [L29S] : 1.12

Form field folding stability dG, entry VTVDIKGMEYHFDNPEEAKKFTERMAKELGGELKVENGTLKVE [A22T] : 0.578

Form field folding stability dG, entry VTVDIKGMEYHFDNPEEAKKFAERAAKELGGELKVENGTLKVE [M25A] : 1.37

Form field folding stability dG, entry VTVDIKGMECHFDNPEEAKKFAERMAKELGGELKVENGTLKVE [Y10C] : 1.77

Form field folding stability dG, entry VTVDIKGMEYHFDNPEEAKKFAERMAVELGGELKVENGTLKVE [K27V] : 1.82

Form field folding stability dG, entry VTVDIKGMEYHFDNPEEAKKFAERMAKELGGELKVENGTLKAE [V42A] : 0.786

Form field folding stability dG, entry VTVDIKGMEYHFDNPEEAKHFAERMAKELGGELKVENGTLKVE [K20H] : 1.53

Form field folding stability dG, entry VTVDIKGMEYHFDNPEEAKKFAERMAKELGGELKVENGTLKNE [V42N] : 0.799

Form field folding stability dG, entry VTVDIKGMEYHFDNPEEAKKFAERMAKELGGEDKVENGTLKVE [L33D] : 0.762

Form field folding stability dG, entry VTVDIKGMEYHFMNPEEAKKFAERMAKELGGELKVENGTLKVE [D13M] : 1.68
